Reference for the values: patent US20100041746A1

system: mACO1; experiment: Gene expression in C2C12 muscle cells (TaqMan RT-PCR): mACO1; type: cell-based, mouse; settings: 24 h incubation, mRNA
metric_name: mACO1 fold of induction compared to DMSO control (fold)
Answer format: numeric, fold implied, no suffix.

QUERY: Supply mACO1 fold of induction compared to DMSO control value. Item: COc1ccc(C=CC(=O)c2cc(OC)ccc2OC)c(OC)c1
RESULT: 1.54

QUERY: Given COc1ccc(C=C2Oc3cc(O)ccc3C2=O)cc1 , respond with its mACO1 fold of induction compared to DMSO control.
RESULT: 1.03

QUERY: Answer with the recorded mACO1 fold of induction compared to DMSO control for the compound listed here: COc1cc(C=CC(=O)NC(=O)c2ccccc2O)cc(OC)c1OC
RESULT: 1.81

QUERY: Identify measured mACO1 fold of induction compared to DMSO control associated with COc1ccc(C(=O)/C=C/c2c(CCN(C)C(C)=O)cc3c(c2OC)OCO3)cc1
RESULT: 1.74

QUERY: Respond only with mACO1 fold of induction compared to DMSO control recorded for O=C(C=Cc1ccc(O)c(O)c1)NC(=O)c1ccccc1O
RESULT: 1.98

QUERY: Please list mACO1 fold of induction compared to DMSO control recorded for the compound COc1ccc(C(=O)C=Cc2cccc(OC(=O)C=Cc3ccccc3)c2)cc1
RESULT: 1.03

QUERY: Provide mACO1 fold of induction compared to DMSO control value for the following compound: COc1ccc(C(=O)C=Cc2ccc(OC)cc2OC)cc1
RESULT: 1.15

QUERY: Find the measured mACO1 fold of induction compared to DMSO control of COc1ccc(C(=O)C=Cc2ccc(OC)c(OC)c2)cc1 and report it.
RESULT: 1.09
